Acetylcholinesterase (Electrophorus electricus) data, read-out log10(IC50)
Sequence (O42275 whole entry): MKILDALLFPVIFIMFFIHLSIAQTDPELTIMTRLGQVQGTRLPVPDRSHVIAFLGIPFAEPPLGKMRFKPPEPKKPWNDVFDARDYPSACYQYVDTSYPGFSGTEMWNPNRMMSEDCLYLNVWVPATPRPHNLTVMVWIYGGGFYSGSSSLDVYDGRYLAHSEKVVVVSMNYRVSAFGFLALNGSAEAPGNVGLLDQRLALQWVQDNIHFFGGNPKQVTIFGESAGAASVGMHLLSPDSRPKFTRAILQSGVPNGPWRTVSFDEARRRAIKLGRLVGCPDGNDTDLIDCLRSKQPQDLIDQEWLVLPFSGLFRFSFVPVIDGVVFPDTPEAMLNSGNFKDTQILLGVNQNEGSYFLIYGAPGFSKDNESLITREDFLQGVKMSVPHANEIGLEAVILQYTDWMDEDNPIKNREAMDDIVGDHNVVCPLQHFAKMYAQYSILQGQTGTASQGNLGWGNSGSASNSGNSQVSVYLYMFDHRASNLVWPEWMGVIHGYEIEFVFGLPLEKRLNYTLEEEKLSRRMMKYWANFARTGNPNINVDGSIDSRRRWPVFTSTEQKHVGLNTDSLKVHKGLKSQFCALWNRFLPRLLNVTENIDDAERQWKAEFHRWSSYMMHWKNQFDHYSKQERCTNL
Log scale reminder: IC50 in nM, then log10 taken.

1) COc1cc(CNCCCCN2CCC(Cc3ccccc3)CC2)ccc1O; 1.06
2) COc1ccc(CNCCCN2CCC(Cc3ccccc3)CC2)cc1OC; 1.88
3) COc1ccc(CNCCN2CCC(Cc3ccccc3)CC2)cc1OC; 2.26
4) c1ccc(CN2CCN(CCCCNCc3cccnc3)CC2)cc1; 2.13

Give the measured log10(IC50) of `c1ccc(CN2CCN(CCCNCc3cccnc3)CC2)cc1` .
1.36

What do we get for `COc1ccc(CNCCCCN2CCC(Cc3ccccc3)CC2)cc1OC` ?
2.31

What do we get for `COc1cc(CNCCN2CCN(Cc3ccccc3)CC2)ccc1O` ?
2.26
